Tested on: LXRb:RXRa (NR concentration 270 nM, RXRa partner concentration 90 nM)
Test: PBM binding z-score (relative to random genomic background probes); higher = stronger binding; sequences stand for … in GC…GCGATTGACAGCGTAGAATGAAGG
endpointLabel: PBM binding z-score
API note: the answer field is a bare number with no unit suffix.

For orientation, consider the following solved cases.
>  <inputSequence>
TCCATTAGTTGAAGGGCAACCGACGAGTCCGTTT

>  <assayValue>
1.23

$$$$
>  <inputSequence>
CCGTCTGGGGCAGAAAGGTTACCATACCATCCGG

>  <assayValue>
0.58

$$$$
>  <inputSequence>
TTACCAAGGTGAGCTGAGGTCCTTGATCCAACTC

>  <assayValue>
-0.383

$$$$
>  <inputSequence>
ATGTCTAGGTAACAAGTTCAGTGAAAGAGAGGAC

>  <assayValue>
0.727

$$$$
>  <inputSequence>
TCTGCTAGGTCAGTTGGTAAGCTAACGAGCTGCC

>  <assayValue>
0.157

$$$$
>  <inputSequence>
CCTCGGAGGACAACAGGCGGTCAGAGCTGCCAGA

>  <assayValue>
-0.76

$$$$
>  <inputSequence>
CCTGGCAGGCCAATCTGGGTCACTCAAGGCTTGA

>  <assayValue>
0.276

$$$$
>  <inputSequence>
CCTGCGAGGTCAATGGTCAGCTAAAGCAGCTCGC

>  <assayValue>
4.29

$$$$
>  <inputSequence>
TAGCCTAGGTCAGATCGGGCCAGGATACGCTATA

>  <assayValue>
0.308

$$$$
>  <inputSequence>
CAAACTAGGACAAAGGTCAAAGTCGAGCCAACCA

>  <assayValue>
5.58

$$$$

What measured PBM binding z-score goes with TTACCAAGGTGAACGTCGTTGATCCCTCTGTAGA ? 1.01

Next record, please: CGAACTAGGTCAGCACAGGACAGTGAAGGATGAT 0.466

* * *

Test system: VDR:RXRa (NR concentration 270 nM, RXRa partner concentration 90 nM)
Test: PBM binding z-score (relative to random genomic background probes); higher = stronger binding; sequences stand for … in GC…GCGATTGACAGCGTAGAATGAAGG
endpointLabel: PBM binding z-score
API note: the answer field is a bare number with no unit suffix.

For orientation, consider the following solved cases.
>  <inputSequence>
ACAGACAAGTGAGTGAAGGTAACTCAGCTGGACG

>  <assayedTarget>
VDR:RXRa (NR concentration 270 nM, RXRa partner concentration 90 nM)

>  <PBM binding z-score>
-0.435

$$$$
>  <inputSequence>
CGGCCAAGGTCAAGGTCAGTGAAAGAGACTCGAA

>  <assayedTarget>
VDR:RXRa (NR concentration 270 nM, RXRa partner concentration 90 nM)

>  <PBM binding z-score>
4.68

$$$$
>  <inputSequence>
CCTAGTTGGTCAATGTCACACACGCTATAGGTAC

>  <assayedTarget>
VDR:RXRa (NR concentration 270 nM, RXRa partner concentration 90 nM)

>  <PBM binding z-score>
0.974

$$$$
>  <inputSequence>
ACGATTAGTTGACTTAGGGCAACCGATACGACGC

>  <assayedTarget>
VDR:RXRa (NR concentration 270 nM, RXRa partner concentration 90 nM)

>  <PBM binding z-score>
0.161

$$$$

What measured PBM binding z-score goes with TCATATAGGTAAATGATAGGTGAAAGTCCGATCT ? 1.15

Next record, please: ATCTCTAGGTAAAGTTCAGTGATAGATCGATAGA 1.47

* * *

System: RXRa homodimer (NR concentration 180 nM)
Test: PBM binding z-score (relative to random genomic background probes); higher = stronger binding; sequences stand for … in GC…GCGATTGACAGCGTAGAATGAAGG
endpointLabel: PBM binding z-score
API note: the answer field is a bare number with no unit suffix.

For orientation, consider the following solved cases.
>  <inputSequence>
AGAATGAGGTTAAGATGAGGGAAACAGAATACAT

>  <PBM binding z-score>
2.38

$$$$
>  <inputSequence>
TAGCCTAGGGCATGCGGGCCAGTATAGTGTCGGC

>  <PBM binding z-score>
-0.233

$$$$
>  <inputSequence>
TCTTGTAGATCAAAGGTTAAGAAGGCCGAAGCCT

>  <PBM binding z-score>
3.37

$$$$
>  <inputSequence>
TCATATAGGTAACACAGGTGAAAGTCGGCATCTA

>  <PBM binding z-score>
1.55

$$$$
>  <inputSequence>
AGAACGTGGGCAATGAGTTGATAGCACGGGTGGC

>  <PBM binding z-score>
0.0338

$$$$

What measured PBM binding z-score goes with ATCGAAAGATCGTGAGGTGAGTATACAGAAAGGC ? 0.649

Next record, please: GACACAGGGTCAAGGCCAGAGTACGCGTATTGAT 6.19

Next record, please: ACAGACGGGTGATGAAGGTAACTCAGGCTATCAT 0.0942

Next record, please: TCATATAGGCAAAAGGTGAAAGTCGGTGTGGTAA 2.12

Next record, please: TCTAGTTGGTCAATGGTCACACACTCGAAATGCG 0.996

Next record, please: CCTACTGGGCCATTCAGAGGTCATAGATCATATG 3.98

Next record, please: GGAACGAGGGCAAGTTGATCGCAGAGTTTGATGG 0.723

* * *

Test system: RXRa homodimer (NR concentration 180 nM)
Test: PBM binding z-score (relative to random genomic background probes); higher = stronger binding; sequences stand for … in GC…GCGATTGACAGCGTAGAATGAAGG
Listed here: items and their measured PBM binding z-score.
API note: the answer field is a bare number with no unit suffix.

For orientation, consider the following solved cases.
>  <inputSequence>
GGAACGAAGGCATTCGAGTTGATAGCATGGCGAT

>  <assayedTarget>
RXRa homodimer (NR concentration 180 nM)

>  <PBM binding z-score>
-0.562

$$$$
>  <inputSequence>
TAGACTAGGTCATTGGGCCAGTATAGTACGCATC

>  <assayedTarget>
RXRa homodimer (NR concentration 180 nM)

>  <PBM binding z-score>
2.44

$$$$
>  <inputSequence>
CCTAGTTGGTCAGGAGATCACACACCGGATATGA

>  <assayedTarget>
RXRa homodimer (NR concentration 180 nM)

>  <PBM binding z-score>
0.347

$$$$

// next entry
What measured PBM binding z-score goes with ATCGAAATGTCGACGAGGTGAGTATACACCGTTT ? 0.492

* * *

System: PXR:RXRa (NR concentration 270 nM, RXRa partner concentration 90 nM)
Assay: PBM binding z-score (relative to random genomic background probes); higher = stronger binding; sequences stand for … in GC…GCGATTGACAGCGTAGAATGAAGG
Listed here: items and their measured PBM binding z-score.
API note: the answer field is a bare number with no unit suffix.

>  <inputSequence>
TCATATAGGTAAATGCTACGTGAAAGTCCGATCT

>  <assayValue>
0.667

$$$$

What measured PBM binding z-score goes with AGGATGAGGTTAAGATCAGGGAAACAGAATACAT ? 1.56

Next record, please: TGAATGAGGTTAAAGATTAGGGAACGTGGCGTCG 1.33

Next record, please: ACATACAGGTGATGAAGGTAACTCAGGCTATCAT 0.132

Next record, please: CCGAGTAGGTTATGGCGCATTCAGGCAACGGTGA -0.289

Next record, please: CCTACTGGGCCAAAGGTCGTTGATTCCAATGCTC 2.45

Next record, please: CAGCCTAGGTCAGGGCCCGTATAGGAGGAACGTT -0.134

* * *

System: RARa:RXR (NR concentration 270 nM, RXRa partner concentration 90 nM)
Experiment: PBM binding z-score (relative to random genomic background probes); higher = stronger binding; sequences stand for … in GC…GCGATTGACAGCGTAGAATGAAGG
Assign 1 (yes) to entries whose PBM binding z-score meets or exceeds 2; assign 0 (no) to the rest.

Some solved entries appear below for comparison.
>  <inputSequence>
GCTTACGGGTCAAAGGTTGTAGCATGAATAGAAT

>  <assayedTarget>
RARa:RXR (NR concentration 270 nM, RXRa partner concentration 90 nM)

>  <classLabel>
1 (yes)

$$$$
>  <inputSequence>
CCTACTGGGCCCAAAAGGTCATTGATGCCGATAA

>  <assayedTarget>
RARa:RXR (NR concentration 270 nM, RXRa partner concentration 90 nM)

>  <classLabel>
1 (yes)

$$$$
>  <inputSequence>
TCTTGTAGATCAAAGGTTAAGAACGCCGAAGCCT

>  <assayedTarget>
RARa:RXR (NR concentration 270 nM, RXRa partner concentration 90 nM)

>  <classLabel>
1 (yes)

$$$$
>  <inputSequence>
CGTCCAAGGTCAGCAAGTCAGTGAAAGCGACGTG

>  <assayedTarget>
RARa:RXR (NR concentration 270 nM, RXRa partner concentration 90 nM)

>  <classLabel>
1 (yes)

$$$$
>  <inputSequence>
GCTTATAGGTAATACAAGGTGAAAGTCCGATTGT

>  <assayedTarget>
RARa:RXR (NR concentration 270 nM, RXRa partner concentration 90 nM)

>  <classLabel>
0 (no)

$$$$

Hi team, for CGTCCACGGTCAAGGTCAGTGAAAGAGACTCGAA , is the recorded PBM binding z-score at or above 2? 1 (yes)

Next record, please: CAAACTAGCTCAAGGTCAAAGTCGGTTTGTGCCA 1 (yes)

Next record, please: CCGAGCAGGCCAATCTGGGTCACTCAAGGCTTGA 0 (no)

Next record, please: GCAGACAGGTGTAACGCAGGTAACTCAGGGTGGC 0 (no)

Next record, please: CCGATTGGGGCAGAAAGGTTACCATACCATCCGG 0 (no)

Next record, please: TCGGGTAGGTTACCAATGGGGCATTCAGCTTTCT 0 (no)

Next record, please: AGAATGAGTTTACCAAAGATCAGGGAAACGCTTG 0 (no)
